- method_notes: Pharmacokinetics in mice (plasma concentration by HPLC)
- Type: in vivo
- experimental_setup: mouse, plasma, sc, 200 mg/kg, saline solution
measured_endpoint: Tmax (min)
The figure you give is taken to be in min; do not add the unit.

Challenge: Given the entry CCc1cc(Nc2cc(=O)n(CCCCN3CCOCC3)c(=O)[nH]2)ccc1C.Cl , report its measured Tmax.
Response given: 30

----------
- method_notes: Pharmacokinetics in mice (plasma concentration by HPLC)
- Assay type: in vivo
- experimental_setup: mouse, plasma, sc, 400 mg/kg, sc, 400 mg/kg, saline solution, read-out: AUC(0-60) (converted)
measured_endpoint: AUC(0-t) (ng·h/mL)
The figure you give is taken to be in ng·h/mL; do not add the unit.

Challenge: Given the entry CCc1cc(Nc2cc(=O)n(CCCCN3CCOCC3)c(=O)[nH]2)ccc1C.Cl , report its measured AUC(0-t).
Response given: 19800

----------
- method_notes: Pharmacokinetics in mice (plasma concentration by HPLC)
- Type: in vivo
- experimental_setup: mouse, plasma, iv, 20 mg/kg, iv, 20 mg/kg, saline solution, 0-120, read-out: AUC(0-t) (converted)
measured_endpoint: AUC(0-t) (ng·h/mL)
The figure you give is taken to be in ng·h/mL; do not add the unit.

Challenge: Given the entry CCc1cc(Nc2cc(=O)n(CCCCN3CCOCC3)c(=O)[nH]2)ccc1C.Cl [Compound 59] , report its measured AUC(0-t).
Response given: 3900

----------
- method_notes: Pharmacokinetics in mice (plasma concentration by HPLC)
- Format: in vivo
- experimental_setup: mouse, plasma, iv, 20 mg/kg, saline solution, read-out: Vd
measured_endpoint: Vd (L/kg)
The figure you give is taken to be in L/kg; do not add the unit.

Challenge: Given the entry CCc1cc(Nc2cc(=O)n(CCCCN3CCOCC3)c(=O)[nH]2)ccc1C.Cl , report its measured Vd.
Response given: 4.3

----------
- System: E. fecium
Please assign class 0 whenever MIC is at or above 20 mg/L, and class 1 whenever it is below.

Solved cases below.
1. CCc1cc(Nc2cc(=O)n(CCCCCNC(=O)c3cccs3)c(=O)[nH]2)ccc1C: class 1
2. CCc1cc(Nc2cc(=O)n(CC(C)CO)c(=O)[nH]2)ccc1C (centres unmarked): class 1

Challenge: Hi there! Is MIC for CCc1cc(Nc2cc(=O)n(CCCCCNC[C@@H]3CCN(C(=O)OC(C)(C)C)C3)c(=O)[nH]2)ccc1C below 20 mg/L, do you know?
Response given: class 0

----------
- method_notes: Pharmacokinetics in mice (plasma concentration by HPLC)
- Format: in vivo
- experimental_setup: mouse, plasma, sc, 400 mg/kg, saline solution
measured_endpoint: Tmax (min)
The figure you give is taken to be in min; do not add the unit.

Challenge: Given the entry CCc1cc(Nc2cc(=O)n(CCCCN3CCOCC3)c(=O)[nH]2)ccc1C.Cl [Compound 59] , report its measured Tmax.
Response given: 30

----------
- method_notes: Pharmacokinetics in mice (plasma concentration by HPLC)
- Type: in vivo
- experimental_setup: mouse, plasma, sc, 400 mg/kg, saline solution
measured_endpoint: half-life
Quote the value and follow it with the unit of measurement.

Challenge: Given the entry CCc1cc(Nc2cc(=O)n(CCCCN3CCOCC3)c(=O)[nH]2)ccc1C.Cl , report its measured half-life.
Response given: 6.22 h

----------
- Test system: E. fecalis
measured_endpoint: MIC (µg/mL)
The figure you give is taken to be in µg/mL; do not add the unit.

1) CCc1cc(Nc2cc(=O)n(CCCCCn3cnc4c(=O)n(C)c(=O)n(C)c43)c(=O)[nH]2)ccc1C [Compound 67]: 20

Let us move to another entry and its MIC.
Challenge: Given the entry CCOC(=O)C1CN(CCCCCn2c(=O)cc(Nc3ccc(C)c(CC)c3)[nH]c2=O)CCC1=O (centres unmarked) [Compound 78] , report its measured MIC.
Response given: 80

----------
- method_notes: Pharmacokinetics in mice (plasma concentration by HPLC)
- Format: in vivo
- experimental_setup: mouse, plasma, iv, 20 mg/kg, saline solution
- Source text: Compound 59 was given to mice in simple saline solutions by various routes—subcutaneous (sc), intravenous (iv), and orally (po). High performance liquid chromatography (HPLC) on a reverse phase C 18 column was used to monitor the concentration of the compound in animal plasma, and the results were plotted as a function of time, as shown in FIG. 1. […]
measured_endpoint: Cmax (ng/mL)
The figure you give is taken to be in ng/mL; do not add the unit.

Challenge: Given the entry CCc1cc(Nc2cc(=O)n(CCCCN3CCOCC3)c(=O)[nH]2)ccc1C.Cl , report its measured Cmax.
Response given: 27400

----------
- method_notes: Pharmacokinetics in mice (plasma concentration by HPLC)
- Type: in vivo
- experimental_setup: mouse, plasma, sc, 200 mg/kg, sc, 200 mg/kg, saline solution, read-out: AUC(0-60) (converted)
measured_endpoint: AUC(0-t)

Challenge: Given the entry CCc1cc(Nc2cc(=O)n(CCCCN3CCOCC3)c(=O)[nH]2)ccc1C.Cl , report its measured AUC(0-t).
Response given: 10600 ng·h/mL

----------
- experimental_system: B.subtilis pol IIIC (Bacillus subtilis, UniProt P13267)
- Sequence (P13267 whole entry): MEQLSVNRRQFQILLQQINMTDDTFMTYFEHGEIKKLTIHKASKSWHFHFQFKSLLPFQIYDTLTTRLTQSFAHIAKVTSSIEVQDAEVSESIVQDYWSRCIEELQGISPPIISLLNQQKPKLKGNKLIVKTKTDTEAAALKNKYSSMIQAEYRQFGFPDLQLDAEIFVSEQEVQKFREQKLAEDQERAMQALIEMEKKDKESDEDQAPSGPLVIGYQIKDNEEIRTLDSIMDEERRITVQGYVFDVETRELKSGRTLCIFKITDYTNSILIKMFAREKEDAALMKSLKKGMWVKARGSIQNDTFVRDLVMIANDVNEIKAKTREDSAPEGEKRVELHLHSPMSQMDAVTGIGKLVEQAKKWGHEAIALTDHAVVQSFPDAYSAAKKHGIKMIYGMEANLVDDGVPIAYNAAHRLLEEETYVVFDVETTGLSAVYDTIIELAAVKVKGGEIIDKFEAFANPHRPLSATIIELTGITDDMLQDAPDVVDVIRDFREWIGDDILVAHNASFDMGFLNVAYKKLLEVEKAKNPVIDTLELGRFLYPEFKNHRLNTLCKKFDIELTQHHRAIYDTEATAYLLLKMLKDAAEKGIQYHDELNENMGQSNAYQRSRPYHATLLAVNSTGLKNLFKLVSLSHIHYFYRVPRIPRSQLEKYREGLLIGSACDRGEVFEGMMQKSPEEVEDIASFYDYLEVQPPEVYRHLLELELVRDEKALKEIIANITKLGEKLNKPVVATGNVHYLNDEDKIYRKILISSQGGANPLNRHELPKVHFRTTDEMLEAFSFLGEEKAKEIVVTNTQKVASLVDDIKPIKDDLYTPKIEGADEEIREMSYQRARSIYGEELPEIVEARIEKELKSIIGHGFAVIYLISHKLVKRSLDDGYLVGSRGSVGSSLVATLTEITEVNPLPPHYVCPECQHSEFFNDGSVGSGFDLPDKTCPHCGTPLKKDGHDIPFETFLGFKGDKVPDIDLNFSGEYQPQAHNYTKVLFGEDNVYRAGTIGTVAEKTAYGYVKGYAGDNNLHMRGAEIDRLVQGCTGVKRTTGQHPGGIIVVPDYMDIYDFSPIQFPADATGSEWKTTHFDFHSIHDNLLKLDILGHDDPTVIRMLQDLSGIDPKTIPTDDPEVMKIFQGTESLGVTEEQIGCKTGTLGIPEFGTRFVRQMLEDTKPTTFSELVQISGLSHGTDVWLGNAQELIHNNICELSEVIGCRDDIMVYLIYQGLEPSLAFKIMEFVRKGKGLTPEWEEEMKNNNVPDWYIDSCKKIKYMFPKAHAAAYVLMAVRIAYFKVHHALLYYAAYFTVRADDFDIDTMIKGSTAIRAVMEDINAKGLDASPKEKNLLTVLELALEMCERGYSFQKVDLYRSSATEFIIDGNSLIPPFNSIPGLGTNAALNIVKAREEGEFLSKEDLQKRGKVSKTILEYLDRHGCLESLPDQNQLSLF
- method_notes: biochemical
- Method: DNA pol activity was assayed as described in Barnes et al., Nuc. Acids Res., 6:1203-19 (1979), using activated “nicked” calf-thymus DNA as template primer, 10 pM [^3H-methyl]-dTTP as the labelled dNTP substrate, and dATP, dCTP, and dGTP at 25 μM each. […]
measured_endpoint: pKi
Keep it numeric: pKi is minus log10 of the concentration in mol/L.

Before answering, review these 2 worked examples.
1) CCc1cc(Nc2cc(=O)n(CCCC(=O)O)c(=O)[nH]2)ccc1C: 7.24
2) CCc1cc(Nc2cc(=O)n(C/C=C/CO)c(=O)[nH]2)ccc1C: 7.29

Let us move to another entry and its pKi.
Challenge: Given the entry CCOC(=O)C1CN(CCCCCn2c(=O)cc(Nc3ccc(C)c(CC)c3)[nH]c2=O)CCC1=O (stereo not drawn) , report its measured pKi.
Response given: 6.60

----------
The listing below reports MIC for compounds tested on E. fecalis.
The figure you give is taken to be in µg/mL; do not add the unit.

Before answering, review these 3 worked examples.
1) CCc1cc(Nc2cc(=O)n(CCOCCOCc3ccccc3)c(=O)[nH]2)ccc1C: 5
2) CCc1cc(Nc2cc(=O)n(CCCCN3CCN(C(=O)c4ccco4)CC3)c(=O)[nH]2)ccc1C: 5
3) CCc1cc(Nc2cc(=O)n(CC(C)=O)c(=O)[nH]2)ccc1C: 20

Challenge: Item CCc1cc(Nc2cc(=O)n(CCCCCCCCO)c(=O)[nH]2)ccc1C with E. fecalis - MIC?
Response given: 2.5

Challenge: Item CCc1cc(Nc2cc(=O)n(CCCCCNC(=O)c3cccs3)c(=O)[nH]2)ccc1C with E. fecalis - MIC?
Response given: 5

Challenge: Item CCc1cc(Nc2cc(=O)n(CCCCC#N)c(=O)[nH]2)ccc1C with E. fecalis - MIC?
Response given: 2.5

Challenge: Item CCc1cc(Nc2cc(=O)n(CCCCNS(=O)(=O)c3cccs3)c(=O)[nH]2)ccc1C with E. fecalis - MIC?
Response given: 5

Challenge: Item CCc1cc(Nc2cc(=O)n(CCCCN3CCN(c4ncc(C(=O)OC)c(C(F)(F)F)n4)CC3)c(=O)[nH]2)ccc1C with E. fecalis - MIC?
Response given: 80

----------
The listing below reports MIC for compounds tested on E. fecalis.

Before answering, review these 4 worked examples.
1) CCc1cc(Nc2cc(=O)n(CCCCN3CCN(c4ccc(C(F)(F)F)cc4[N+](=O)[O-])CC3)c(=O)[nH]2)ccc1C: 80 µg/mL
2) CCc1cc(Nc2cc(=O)n(CCCC(C)=O)c(=O)[nH]2)ccc1C: 5 µg/mL
3) CCc1cc(Nc2cc(=O)n(CCCCN3CCC(O)(c4ccc(Cl)cc4)CC3)c(=O)[nH]2)ccc1C: 5 µg/mL
4) CCc1cc(Nc2cc(=O)n(CCOCCOC)c(=O)[nH]2)ccc1C: 5 µg/mL

Let us move to another entry and its MIC.
Challenge: Item CCc1cc(Nc2cc(=O)n(CCCCCNC[C@H]3CCNC3)c(=O)[nH]2)ccc1C with E. fecalis - MIC?
Response given: 80 µg/mL

----------
- Tested on: E. fecium
measured_endpoint: MIC (µg/mL)
The figure you give is taken to be in µg/mL; do not add the unit.

1) CCc1cc(Nc2cc(=O)n(CC(C)=O)c(=O)[nH]2)ccc1C: 10
2) CCc1cc(Nc2cc(=O)n(CCOCCOCc3ccccc3)c(=O)[nH]2)ccc1C: 10
3) CCc1cc(Nc2cc(=O)n(CC#CCO)c(=O)[nH]2)ccc1C: 10
4) CCCCC1(O)CCN(CCCCCn2c(=O)cc(Nc3ccc(C)c(CC)c3)[nH]c2=O)CC1: 10
5) CCc1cc(Nc2cc(=O)n(CCCCNS(=O)(=O)c3cccs3)c(=O)[nH]2)ccc1C: 2.5
6) CCc1cc(Nc2cc(=O)n(CCNS(C)(=O)=O)c(=O)[nH]2)ccc1C: 10

Challenge: Item CCc1cc(Nc2cc(=O)n(CCCCN3CCN(c4ncc(C(=O)O)c(C(F)(F)F)n4)CC3)c(=O)[nH]2)ccc1C with E. fecium - MIC?
Response given: 40

Origin of the recorded values: patent US20030114445A1
